tested on: NCI-H23 lung; experiment: NCI tumour cell line growth inhibition, 48 h
Where a SMILES comes first, the peptide text is derived from it. [ ]: non-standard residue; d: D form. The star is where a group is joined. dTle = CC(C)(C)[C@@H](N)C(=O)O; 4Abz = Nc1ccc(C(=O)O)cc1; NHOH = ON*
Metric: TGI

>  <Compound>
C[C@@H](NC(=O)[C@H](NC(=O)[C@@H]1CCCN1C(=O)CNC(=O)c1ccc(N)cc1)C(C)(C)C)C(=O)NO (H-[4Abz]GP[dTle][dA]-{NHOH})

>  <TGI>
> 100 µM

$$$$
>  <Compound>
O=[N+]([O-])c1cc(C(F)(F)F)ccc1Sc1ccc(C(F)(F)F)cc1[N+](=O)[O-]

>  <TGI>
> 100 µM

$$$$
>  <Compound>
COc1cc2c(cc1OC)CC1c3cc(OC)c(OC)cc3CCN1CC2 (centres undefined)

>  <TGI>
68 µM

$$$$
>  <Compound>
OCCNc1nc(Nc2ccc(Cl)c(Cl)c2)nc2ccccc12

>  <TGI>
25.1 µM

$$$$
>  <Compound>
CN(CC(=O)Nc1nc2ccccc2[nH]1)S(=O)(=O)c1ccc(Cl)cc1

>  <TGI>
> 100 µM

$$$$
>  <Compound>
CC(=O)O[C@@]1(C)[C@@H](C)C(=O)O[C@@H]2CCN3CC=C(COC(=O)[C@]1(C)O)[C@H]23

>  <TGI>
> 100 µM

$$$$
>  <Compound>
CCNC12CCC(C1)C(C)(C)C2=O (centres undefined)

>  <TGI>
> 100 µM

$$$$
>  <Compound>
CCN(CC)C(=S)SCN1C(=O)c2ccccc2S1(=O)=O

>  <TGI>
> 91.1 µM

$$$$

Okay, next one:
Kindly note the recorded TGI for CC1(C(=O)Nc2ccc3ccccc3c2)CC2(C)CC(C)(C1)C(O)NC2=O (centres undefined) , which is > 100 µM

====

test system: RXF 393 renal; experiment: NCI tumour cell line growth inhibition, 48 h
// reported TGI for each item listed
# output: bare number, implied unit µM

# example entries with known answers
>  <Compound>
CN1CCN(c2ccc(NC(=O)c3cncnc3Nc3ccc(OCc4ccccn4)c(Cl)c3)cc2)CC1

>  <Unit>
µM

>  <Result>
6.71

$$$$
>  <Compound>
OCCNc1nc(Nc2ccc(Cl)c(Cl)c2)nc2ccccc12

>  <Unit>
µM

>  <Result>
18.4

$$$$

Kindly note the recorded TGI for CCCCCCCCCC(=O)OCC1OC(n2cc(F)c(=O)[nH]c2=O)C(NC(=O)OCc2ccccc2)C(OC(=O)CCCCCCCCC)C1O (configuration not stated) , which is 44

====

test system: HL-60(TB) leukemia; assay: NCI tumour cell line growth inhibition, 48 h
Metric: TGI

# example entries with known answers
>  <Molecule>
CCc1cc(CCC(=O)Nc2ccccc2[N+](=O)[O-])[nH]c(=S)n1

>  <TGI>
> 100 µM

$$$$
>  <Molecule>
COC(=O)C1Cc2ccc3c(c2C1=O)CCCC3 (configuration not stated)

>  <TGI>
> 100 µM

$$$$
>  <Molecule>
CCN(CC)c1ccc(/C=C/C(=O)c2cc(C(C)(C)C)c(O)c(C(C)(C)C)c2)cc1

>  <TGI>
> 39.2 µM

$$$$
>  <Molecule>
O=C1OC(=O)C2CCCC3CCCC1C32 (configuration not stated)

>  <TGI>
> 100 µM

$$$$
>  <Molecule>
Cc1cc(-c2ccccn2)cc(C)c1/C=C/c1cncc(-c2nn[nH]n2)c1

>  <TGI>
> 25 µM

$$$$
>  <Molecule>
O=C(N/N=C/c1ccc([N+](=O)[O-])cc1)Nc1ccc(Br)cc1

>  <TGI>
> 100 µM

$$$$

Kindly note the recorded TGI for COc1ccc(NC(=O)C(C)Oc2ccc(OCC3CCCCC3)cc2)cc1 (configuration not stated) , which is > 100 µM

Kindly note the recorded TGI for `CCCN(CCC)c1ccc(/C=N/NC(=O)c2cccnc2)c(OC)c1` , which is 59.2 µM

Kindly note the recorded TGI for NC1=NN(c2ccccc2)C(=O)C1C(=O)C(=O)Nc1nccs1 (configuration not stated) , which is > 100 µM

Kindly note the recorded TGI for `C=CCN1/C(=C2\SC(=S)N(c3ccc(C)cc3)C2=O)Sc2c1nc[nH]c2=O` , which is > 100 µM

Kindly note the recorded TGI for `OCc1cc2ccncc2c2c1[nH]c1ccccc12` , which is 24.9 µM

Kindly note the recorded TGI for `Cc1cn2c(/C=N/N=C(N)N)c(-c3ccccn3)nc2s1` , which is > 100 µM

Kindly note the recorded TGI for `CC1(C)N=C(N)N=C(N)N1c1cccc(C(=O)Nc2ccc(S(=O)(=O)F)cc2)c1` , which is > 100 µM

Kindly note the recorded TGI for `NS(=O)(=O)NCCNc1nonc1C(=Nc1ccc(F)c(Br)c1)NO` , which is > 100 µM

Kindly note the recorded TGI for Cc1ccc(C2COc3cc(O)c(O)cc3C2)cc1 (configuration not stated) , which is 8.27 µM

Kindly note the recorded TGI for CC1(C(=O)Nc2ccc3ccccc3c2)CC2(C)CC(C)(C1)C(O)NC2=O (configuration not stated) , which is > 100 µM

====

test system: EKVX NSCLC; assay: NCI tumour cell line growth inhibition, 48 h
// reported TGI for each item listed

# example entries with known answers
>  <Molecule>
O=C(Nc1cccc(Cl)c1)c1cccc(NC2=C(Cl)C(=O)N(Cc3ccccc3)C2=O)c1

>  <Result>
> 100 µM

$$$$
>  <Molecule>
C=C1CC2CC(O)CC(C1)C2 (stereo not given)

>  <Result>
> 100 µM

$$$$
>  <Molecule>
Cc1ccc2c(ccc(/C=C\c3cc(C)c4cccnc4c3O)[n+]2C)c1

>  <Result>
75 µM

$$$$
>  <Molecule>
COc1nc2c(c(=O)n1C)N=C(c1ccccc1)[C@H](C(CC(=O)c1ccccc1)c1ccccc1)C(c1ccccc1)N2 (stereo not given in full)

>  <Result>
> 100 µM

$$$$
>  <Molecule>
O=C1NNC2NC(=O)C3(NN2C1=O)c1ccccc1-c1ccccc13 (stereo not given)

>  <Result>
> 100 µM

$$$$

Kindly note the recorded TGI for O=C1OC(=O)C2CCCC3CCCC1C32 (stereo not given) , which is > 100 µM

Kindly note the recorded TGI for `Cn1c2ccccc2c(=O)c2cccc(C(=O)NCC(=O)O)c21` , which is > 100 µM

====

// reported TGI for each item listed
test system: HT29 colon; assay: NCI tumour cell line growth inhibition, 48 h

>  <Smiles record>
COC(=O)C1=C(C)NC(C)=C(C(=O)OC)C1c1ccc(N=O)cc1

>  <Metric>
TGI

>  <Result>
40.8 µM

$$$$
>  <Smiles record>
O=c1cc(-c2ccco2)[nH]c2cc3c(cc12)OCO3

>  <Metric>
TGI

>  <Result>
> 100 µM

$$$$
>  <Smiles record>
O=c1cc(N=Nc2ccc(Cl)c(Cl)c2)[nH]c(=O)[nH]1

>  <Metric>
TGI

>  <Result>
3.13 µM

$$$$

Kindly note the recorded TGI for `CCN(CC)c1ccc2nc3ccc(N=Nc4c(O)ccc5ccccc45)cc3[n+](-c3ccccc3)c2c1` , which is > 100 µM

Kindly note the recorded TGI for `CC(=O)n1cc(OP(=O)(Oc2ccccc2)Oc2ccccc2)c2ccccc21` , which is > 100 µM

Kindly note the recorded TGI for `COC(=O)[C@H]1COC(=O)N1` , which is > 100 µM

====

tested on: KM12 colon; experiment: NCI tumour cell line growth inhibition, 48 h
Metric: TGI

# example entries with known answers
>  <Compound>
CC1(c2ccc(Cl)s2)CC(c2ccc(Cl)s2)=C(C#N)C(=C(C#N)C#N)N1 (centres undefined)

>  <Result>
36 µM

$$$$
>  <Compound>
COc1ccc2oc(C(=O)O)c3c2c1CCC3CCC(=O)O (centres undefined)

>  <Result>
> 100 µM

$$$$

Kindly note the recorded TGI for NC1=NN(c2ccccc2)C(=O)C1C(=O)C(=O)Nc1nccs1 (centres undefined) , which is > 100 µM

Kindly note the recorded TGI for `O=C(CCn1[nH]c(=O)c(Cl)c(Cl)c1=O)NNC(=O)C[n+]1ccccc1` , which is > 100 µM

Kindly note the recorded TGI for `Cn1c2ccccc2c(=O)c2cccc(C(=O)NCC(=O)O)c21` , which is > 100 µM

Kindly note the recorded TGI for `O=C1c2ccccc2-c2c1c1c(O)cccc1n2Cc1ccccn1` , which is > 100 µM

Kindly note the recorded TGI for `Cc1ccnc2[nH]c(-c3ccc(F)cc3)cc(=O)c12` , which is > 100 µM

Kindly note the recorded TGI for `C/C(O)=C(\C#N)C(=O)Nc1ccc(C(F)(F)F)cc1` , which is > 100 µM

Kindly note the recorded TGI for `Cc1cc(-c2ccccn2)cc(C)c1/C=C/c1cncc(-c2nn[nH]n2)c1` , which is > 25 µM

Kindly note the recorded TGI for c1ccc(C(=NCCC2CNc3ccccc32)c2ccccc2)cc1 (centres undefined) , which is > 100 µM

Kindly note the recorded TGI for C#CCN(N=O)C(=O)NCCCCC(NC(C)=O)C(=O)NCc1ccccc1 (centres undefined) , which is > 100 µM

Kindly note the recorded TGI for `NS(=O)(=O)NCCNc1nonc1C(=Nc1ccc(F)c(Br)c1)NO` , which is > 100 µM

Kindly note the recorded TGI for `CC(C)(C)OC(=O)NCCNCCNc1ccccc1` , which is > 100 µM

Kindly note the recorded TGI for `C/C=C(\CCOS(=O)(=O)c1ccc(C)cc1)[Si](C)(C)C` , which is > 100 µM

Kindly note the recorded TGI for `CCN(CC)c1ccc(/C=C/C(=O)c2cc(C(C)(C)C)c(O)c(C(C)(C)C)c2)cc1` , which is > 30.3 µM

Kindly note the recorded TGI for Nc1ccc(-c2cccs2)cc1NC(=O)c1ccc(CCCC(=O)Nc2ccc(C3CC3N)cc2)cc1 (centres undefined) , which is > 100 µM

Kindly note the recorded TGI for `COc1ccc2c(c1)C(=O)/C(=C/c1ccc([N+](=O)[O-])o1)O2` , which is 3.11 µM
